pKd overview
# measured-on: T1, recombinant human FGF23 (R179Q) (human, UniProt Q9GZV9 25-251)
# T1 construct: also called rhFGF23(R179Q); hFGF23(R179Q)
# T1 sequence (looked up): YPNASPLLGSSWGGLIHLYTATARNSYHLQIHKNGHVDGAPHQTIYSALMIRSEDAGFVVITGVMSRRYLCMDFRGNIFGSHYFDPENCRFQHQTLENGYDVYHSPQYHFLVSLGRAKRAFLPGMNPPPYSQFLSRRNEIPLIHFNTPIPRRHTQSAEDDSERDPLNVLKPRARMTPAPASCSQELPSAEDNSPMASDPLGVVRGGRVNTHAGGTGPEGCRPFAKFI
# procedure-details: SPR, antibody captured on hIgG chip, rhFGF23(R179Q) analyte
Scale for pKd: -log10 of concentration given in mol/L; no unit attached.

UGX137 (antibody, human IgG1, kappa, V domains shown, also called UGX035; LC:N92F) VH: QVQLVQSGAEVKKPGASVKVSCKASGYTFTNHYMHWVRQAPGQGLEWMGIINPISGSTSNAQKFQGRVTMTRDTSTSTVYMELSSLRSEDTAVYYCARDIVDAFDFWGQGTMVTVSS VL: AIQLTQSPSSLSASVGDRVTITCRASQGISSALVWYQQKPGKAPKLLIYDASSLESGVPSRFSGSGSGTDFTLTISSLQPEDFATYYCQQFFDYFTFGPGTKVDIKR
10.50
UGX178 (antibody, human IgG1, kappa, V domains shown, also called HC:N31F, HC:S59F) VH: QVQLVQSGAEVKKPGASVKVSCKASGYTFTFHYMHWVRQAPGQGLEWMGIINPISGSTFNAQKFQGRVTMTRDTSTSTVYMELSSLRSEDTAVYYCARDIVDAFDFWGQGTMVTVSS VL: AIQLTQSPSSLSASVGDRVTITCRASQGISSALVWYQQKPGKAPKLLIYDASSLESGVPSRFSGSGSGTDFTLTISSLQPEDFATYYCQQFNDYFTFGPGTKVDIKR
10.67
UGX205 (antibody, human IgG1, kappa, V domains shown, also called HC:S59E, LC:Y94D; S59E/Y94D) VH: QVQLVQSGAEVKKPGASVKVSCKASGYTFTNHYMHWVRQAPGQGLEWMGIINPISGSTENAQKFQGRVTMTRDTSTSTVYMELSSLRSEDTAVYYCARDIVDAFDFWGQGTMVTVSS VL: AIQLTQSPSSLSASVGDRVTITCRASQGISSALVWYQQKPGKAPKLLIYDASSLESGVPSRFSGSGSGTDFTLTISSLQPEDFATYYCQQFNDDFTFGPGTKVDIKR
11.39
UGX190 (antibody, human IgG1, kappa, V domains shown, also called HC:S59T, HC:V101L) VH: QVQLVQSGAEVKKPGASVKVSCKASGYTFTNHYMHWVRQAPGQGLEWMGIINPISGSTTNAQKFQGRVTMTRDTSTSTVYMELSSLRSEDTAVYYCARDILDAFDFWGQGTMVTVSS VL: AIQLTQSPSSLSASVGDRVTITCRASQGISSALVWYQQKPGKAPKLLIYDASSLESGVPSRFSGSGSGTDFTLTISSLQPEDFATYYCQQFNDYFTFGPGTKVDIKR
8.51

Here is the next item to consider.
[Q] Given the entry UGX146 (antibody, human IgG1, kappa, V domains shown, also called LC:Y94F) VH: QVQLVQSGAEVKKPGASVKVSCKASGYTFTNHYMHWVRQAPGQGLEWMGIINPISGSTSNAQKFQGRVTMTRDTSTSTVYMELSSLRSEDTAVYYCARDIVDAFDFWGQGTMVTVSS VL: AIQLTQSPSSLSASVGDRVTITCRASQGISSALVWYQQKPGKAPKLLIYDASSLESGVPSRFSGSGSGTDFTLTISSLQPEDFATYYCQQFNDFFTFGPGTKVDIKR , report its measured pKd.
[A] 10.48
